Assay: modulators of CIT2-GFP expression in yeast, confirmation, S. cerevisiae, GFP fusion, cherry picks, mother/daughter gates (AID 2274)
Conditions: S. cerevisiae CIT2-GFP strain, flow cytometry, 3 h; at 10 µM; hits give high values
OBSERVATION_TYPE: GFP response, % of DMSO (%)

INSERT INTO assay_data (molecule, experimental_value) VALUES
  ('Cc1ccc(/C=C2/C(=O)ON=C2c2ccccc2)o1', 92.1),
  ('CCc1ccc(CNC(=O)CCC(=O)N2Cc3cccc(OC)c3Oc3ncccc32)cc1', 102),
  ('CN=C(NC)SC1CC(=O)N(c2ccccc2)C1=O (stereo unspecified)', 92.6),
  ('c1cc2c(cc1C1CCCCC1)c1c3n2CCCNC3CCC1 (stereo unspecified)', 100),
  ('O=[N+]([O-])c1ccc(SCCc2ccncc2)cc1', 99.7),
  ('O=C1c2ccccc2C2=Nc3ccccc3SC(c3cccc(F)c3)C12 (stereo unspecified)', 117),
  ('Oc1ccc(/C=N/Nc2nc(-c3cccnc3)nc3ccccc23)c(O)c1', 106),
  ('O=C(Nc1nccs1)C(c1ccccc1)N1CCCCC1 (stereo unspecified)', 94.4),
  ('Cc1nc(SC2CC(=O)N(c3ccccc3)C2=O)nc2c1CCCC2 (stereo unspecified)', 101),
  ('COC(=O)C1CCN(C(=O)COC(=O)CCc2nc3ccccc3c(=O)[nH]2)CC1', 99.3),
  ('O=[N+]([O-])c1ccc(S(=O)(=O)c2cccc(C(F)(F)F)c2)nc1', 128);

* * *

Assay: inhibitors of fungal efflux pumps CDR1, CDR2, MDR1, pilot screen, validation compound set, multiplex, phenotypic (AID 588506);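 further: Nile Red retained in cells so higher fluorescence means more efflux inhibition; 0 = negative control wells and 1 = enniatin B 25 µM full block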
Conditions: S. cerevisiae pump-expressing triplex, Nile Red efflux flow cytometry; at 10 µM; hits give high values; the pumps come from Candida albicans
Could you mark each record label 1 if its efflux inhibition (fraction of control) falls strictly under 0.2, and label 0 if it equals or exceeds it?

INSERT INTO results (compound, category) VALUES
  ('CCC12CN3CC(CC)(CN(C1)C31C(=O)N(C)c3ccc(C)cc31)C2=O (stereo not given)', 'label 1'),
  ('Cc1oc2c(C)c3oc(=O)c4c(c3cc2c1C)CCCC4', 'label 1'),
  ('CCN1CCN(C(=O)N[C@@H](C(=O)N[C@@H]2C(=O)N3[C@@H]2SC(C)(C)[C@@H]3C(=O)O)c2ccccc2)C(=O)C1=O', 'label 1'),
  ('CCOc1ccccc1C(=O)NCCC(=O)O', 'label 0'),
  ('C=C(CC)C(=O)c1ccc(OCC(=O)O)c(Cl)c1Cl', 'label 1'),
  ('O=C(O)CCSc1nc2ccccc2s1', 'label 0'),
  ('CN(Cc1ccccc1)CC(O)COc1ccc(CNCc2cccnc2)cc1 (stereo not given)', 'label 1'),
  ('CC(=O)OCC(=O)[C@@]12OC(C)(C)O[C@@H]1C[C@H]1[C@@H]3C[C@H](F)C4=CC(=O)C=C[C@]4(C)[C@@]3(F)[C@@H](O)C[C@@]12C', 'label 1'),
  ('C[C@H]1O[C@H]1P(=O)(O)O', 'label 1'),
  ('CC1(C)Cc2ccccc2C(C(Cc2ccccc2)C(N)=O)=N1 (stereo not given)', 'label 0');

* * *

Test: modulators of CIT2-GFP expression in yeast, confirmation, S. cerevisiae, GFP fusion, cherry picks, mother/daughter gates (AID 2274)
Conditions: S. cerevisiae CIT2-GFP strain, flow cytometry, 3 h; at 10 µM; hits give high values
The reader will find reported GFP response, % of DMSO values listed item by item below.
OBSERVATION_TYPE: GFP response, % of DMSO (%)

INSERT INTO results (smiles_entry, observation_type, experimental_value) VALUES
  ('C=CCOc1ccc(C(=O)/C=C2/C(=O)Nc3ccccc32)cc1', 'GFP response, % of DMSO', 95.2),
  ('CCCN1C(=O)c2cccc3c(N4CCCCC4)ccc(c23)C1=O', 'GFP response, % of DMSO', 103),
  ('COc1cc(C(=O)ON=C2C3CC4CC(C3)CC2C4)cc(OC)c1OC', 'GFP response, % of DMSO', 145),
  ('Cc1noc2ncnc(Sc3ccc(Cl)cc3)c12', 'GFP response, % of DMSO', 104),
  ('Cc1ccc(-c2nc(NC(=O)c3nn(C)cc3[N+](=O)[O-])sc2C)cc1', 'GFP response, % of DMSO', 96.5),
  ('Cn1c(N2CCCC2)nc2c1c(=O)n(Cc1ccc(Cl)cc1)c(=O)n2C', 'GFP response, % of DMSO', 81.4);

These data points were gathered from PubChem BioAssay.
